test system: RORγt (Homo sapiens, UniProt P51449)
Sequence (P51449 1-497 isoform P51449-2): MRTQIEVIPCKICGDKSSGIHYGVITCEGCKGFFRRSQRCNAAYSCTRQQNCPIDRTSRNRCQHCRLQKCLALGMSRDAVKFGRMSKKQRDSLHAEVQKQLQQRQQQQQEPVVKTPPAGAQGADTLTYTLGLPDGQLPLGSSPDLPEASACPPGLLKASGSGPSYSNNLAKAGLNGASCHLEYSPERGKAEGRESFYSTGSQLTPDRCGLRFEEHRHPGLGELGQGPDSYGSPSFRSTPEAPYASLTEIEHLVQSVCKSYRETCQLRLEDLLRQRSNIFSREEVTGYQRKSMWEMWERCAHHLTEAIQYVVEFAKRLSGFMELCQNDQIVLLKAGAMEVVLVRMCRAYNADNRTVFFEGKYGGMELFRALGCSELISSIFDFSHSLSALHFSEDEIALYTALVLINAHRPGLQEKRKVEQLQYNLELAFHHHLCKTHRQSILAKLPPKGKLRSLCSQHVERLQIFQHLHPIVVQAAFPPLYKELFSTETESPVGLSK
procedure text: Cofactor recruitment test (Alpha Screen, biotinylated SRC-1 peptide)
Format: biochemical
conditions used: read-out: Signal value inhibitory rate at test compound 1 μM (%)
Mark Criterion not met for inhibition at 1 µM values under 90%, and Criterion met for everything at or above.

{"smiles text": "COc1ccc2c(c1)CCN(C(=O)CCCC(=O)O)[C@H]2C(=O)Nc1cc(F)c(C(C)(C)COCC(F)F)c(F)c1", "assigned category": "Criterion not met"}
{"smiles text": "COc1ccc2c(c1)CCN(C(=O)Cc1cc(O)no1)[C@H]2C(=O)Nc1cc(F)c(C(C)(C)COCC(F)F)c(F)c1", "assigned category": "Criterion not met"}
{"smiles text": "COc1ccc2c(c1)CCN(C(=O)[C@H]1CNC(=O)C1)[C@H]2C(=O)Nc1ccc(C(C)(C)C)c(F)c1", "assigned category": "Criterion not met"}
{"smiles text": "CCOc1ccc2c(c1)CCN(C(=O)Cc1cc(O)no1)[C@H]2C(=O)Nc1cc(F)c2c(c1)CCC2(C)C", "assigned category": "Criterion not met"}
{"smiles text": "COCc1ccc2c(c1)CCN(C(=O)Cc1cc(O)no1)[C@H]2C(=O)Nc1cc(F)c2c(c1)CCC2(C)C", "assigned category": "Criterion met"}
{"smiles text": "COc1ccc2c(c1)CCN(C(=O)Cc1cc(O)no1)[C@H]2C(=O)Nc1ccc([Si](C)(C)C)c(C#N)c1", "assigned category": "Criterion met"}
{"smiles text": "COc1ccc2c(n1)CCN(C(=O)Cc1cc(O)no1)[C@H]2C(=O)Nc1cc(F)c([Si](C)(C)C)c(F)c1", "assigned category": "Criterion met"}
